# System: olfactory receptor car-b85
# assay.name: Odor response of olfactory cell expressing olfactory receptor car-b85 (fura-2 calcium fluorescence)
# Type: cell-based, mouse
# condition.label: car-b85, odor quality Mint; responders at 10 μM

| compound | Response at 10 μM |
| --- | --- |
| CC(C)=C1CC[C@@H](C)CC1=O [pu, (R)-p-menth-4(8)-en-3-one] | pu |
| C=C(C)[C@@H]1CC=C(C)C(=O)C1 [rCa] | rCa |
| C=C(C)[C@H]1CC=C(C)C(=O)C1 [sCa] | sCa |
| C=C(C)C1CCC(C)CC1O (centres unmarked) [ip, 2-isopropenyl-5-methylcyclohexanol] | ip |
| CC(C)[C@@H]1CC[C@@H](C)CC1=O [mn] | mn |
